Test system: Pseudomonas fluorescens FW300-N2E2
Conditions: medium / electron acceptor: N2E2 R2A/aerobic
Quick rule for you: IC50 growth inhibition under 200 µM gets 1.0, anything else gets 0.0.

INSERT INTO assay_data (compound, class_assignment) VALUES
  ('O.O.[Ba+2].[Cl-].[Cl-] [Barium chloride dihydrate]', 0.0),
  ('O.O.O.O.O.[Cd+2].[Cd+2].[Cl-].[Cl-].[Cl-].[Cl-] [Cadmium chloride hemipentahydrate]', 1.0),
  ('[Ca+2].[Cl-].[Cl-] [Calcium chloride dihydrate]', 0.0),
  ('OB1OB2OB(O)OB(O1)O2 [sodium tetraborate decahydrate]', 0.0),
  ('O=P([O-])(O)O.[Na+] [Sodium phosphate monobasic monohydrate]', 0.0),
  ('[K+].[K+].[O]=[Cr](=[O])([O-])[O-] [Potassium chromate]', 1.0),
  ('[O-][Cl+]O [Sodium Chlorite]', 1.0),
  ('[Cl][Fe]([Cl])[Cl] [Ferric chloride]', 0.0),
  ('[Cl-].[Rb+] [rubidium chloride]', 0.0),
  ('O.O.[Na+].[Na+].[O]=[W](=[O])([O-])[O-] [Sodium tungstate dihydrate]', 0.0),
  ('[Cl][Bi]([Cl])[Cl] [bismuth(III) chloride]', 1.0);

----------
IC50 growth inhibition: recorded values
Tested on: Pseudomonas fluorescens FW300-N2E2
Conditions: medium / electron acceptor: N2E2 Glucose/aerobic 0.25xMinerals
measured parameter: IC50 growth inhibition (mM)

INSERT INTO measurements (molecule, bound_sign, recorded_measurement) VALUES
  ('[Na+].[Na+].[O]=[Mo](=[O])([O-])[O-] [Sodium molybdate]', '=', 2.62),
  ('[Cl][Ga]([Cl])[Cl] [Gallium(III)chloride]', '<', 0.0244),
  ('O=[Se](=O)([O-])[O-].[Na+].[Na+] [Sodium selenate]', '<', 0.244),
  ('[O-][Cl+]O [Sodium Chlorite]', '<', 0.00244),
  ('[Br-].[Na+] [sodium bromide]', '=', 405),
  ('Cl.N [Ammonium chloride]', '=', 347),
  ('OB1OB2OB(O)OB(O1)O2 [sodium tetraborate decahydrate]', '>', 5),
  ('[Cl][Ag] [silver chloride]', '>', 0.5),
  ('O.O.O.O.O.O.[Cl][Cr]([Cl])[Cl] [Chromium(III) Chloride Hexahydrate]', '<', 0.00244),
  ('[K+].[OH-].[OH-].[OH-].[OH-].[OH-].[OH-].[Sb+3] [potassium hexahydroxoantimonate]', '=', 3.96);

----------
Tested on: Pseudomonas fluorescens FW300-N2E2
Conditions: medium / electron acceptor: N2E2 Glucose/aerobic (2)
Consider the cut-off 20 mM. If the recorded IC50 growth inhibition is strictly smaller, the label is TRUE; if not, the label is FALSE.

INSERT INTO measurements (compound, class_assignment) VALUES
  ('[Cl-].[Na+] [Sodium Chloride]', 'FALSE'),
  ('[Cl-].[Rb+] [rubidium chloride]', 'TRUE'),
  ('[F-].[Na+] [sodium fluoride]', 'TRUE'),
  ('[Cl][Fe]([Cl])[Cl] [Ferric chloride]', 'FALSE'),
  ('O.O=[Te]([O-])[O-].[K+].[K+] [Potassium tellurite hydrate]', 'TRUE'),
  ('OCl [Sodium hypochlorite]', 'TRUE'),
  ('[O-][Cl+3]([O-])([O-])O [Sodium perchlorate monohydrate]', 'FALSE'),
  ('O.O.O.O.O.O.[Cl][Cr]([Cl])[Cl] [Chromium(III) Chloride Hexahydrate]', 'TRUE'),
  ('[Br-].[Na+] [sodium bromide]', 'FALSE'),
  ('[Ca+2].[Cl-].[Cl-] [Calcium chloride dihydrate]', 'FALSE'),
  ('O.O=[Te](=O)([O-])[O-].[K+].[K+] [potassium tellurate hydrate]', 'TRUE'),
  ('[Na+].[O]=[V](=[O])[O-] [Sodium metavanadate]', 'TRUE'),
  ('O.O.O.O.O.O.O.O.O.O.O=S(=O)([O-])[O-].[Na+].[Na+] [Sodium sulfate]', 'FALSE'),
  ('[Cl][Pt]([Cl])([Cl])[Cl] [platinum (IV) chloride]', 'TRUE'),
  ('[Cl-].[K+] [Potassium Chloride]', 'FALSE'),
  ('Cl.N [Ammonium chloride]', 'FALSE'),
  ('O=P[O-].[Na+] [Sodium hypophosphite monohydrate]', 'FALSE'),
  ('O.[Au+3].[Cl-].[Cl-].[Cl-] [gold (III) chloride hydrate]', 'TRUE'),
  ('[Na+].[Na+].[O]=[Mo](=[O])([O-])[O-] [Sodium molybdate]', 'TRUE'),
  ('O=[N+]([O-])[O-].[Na+] [Sodium nitrate]', 'FALSE');

----------
Tested on: Pseudomonas fluorescens FW300-N2E2
Conditions: medium / electron acceptor: N2E2 LB/aerobic
IC50 growth inhibition by entry:
measured parameter: IC50 growth inhibition (mM)

INSERT INTO measurements (molecule, assayed_system, bound_sign, recorded_measurement) VALUES
  ('[Cl-].[K+] [Potassium Chloride]', 'Pseudomonas fluorescens FW300-N2E2', '>', 500),
  ('[K+].[K+].[O]=[Cr](=[O])([O-])[O-] [Potassium chromate]', 'Pseudomonas fluorescens FW300-N2E2', '<', 0.244),
  ('O.O.O.O.[Cl][Mn][Cl] [Manganese (II) chloride tetrahydrate]', 'Pseudomonas fluorescens FW300-N2E2', '=', 3.79),
  ('[Cl][Ag] [silver chloride]', 'Pseudomonas fluorescens FW300-N2E2', '>', 0.5),
  ('O=[Se]([O-])[O-].[Na+].[Na+] [Sodium selenite pentahydrate]', 'Pseudomonas fluorescens FW300-N2E2', '<', 0.244),
  ('[Cl][Bi]([Cl])[Cl] [bismuth(III) chloride]', 'Pseudomonas fluorescens FW300-N2E2', '=', 0.0727),
  ('[O-][I+3]([O-])([O-])O [Sodium periodate]', 'Pseudomonas fluorescens FW300-N2E2', '=', 0.813),
  ('O.O.O.O.O.O.[Cl][Cr]([Cl])[Cl] [Chromium(III) Chloride Hexahydrate]', 'Pseudomonas fluorescens FW300-N2E2', '=', 4.91),
  ('O=C(O)C[C@H](NCCN[C@@H](CC(=O)O)C(=O)O)C(=O)O', 'Pseudomonas fluorescens FW300-N2E2', '<', 0.122),
  ('O.O.O.O.O.O.[Cl][Ni][Cl] [Nickel (II) chloride hexahydrate]', 'Pseudomonas fluorescens FW300-N2E2', '=', 3.59),
  ('[O-][Cl+2]([O-])O [Sodium Chlorate]', 'Pseudomonas fluorescens FW300-N2E2', '=', 24.5),
  ('[Cl-].[Cl-].[Zn+2] [Zinc chloride]', 'Pseudomonas fluorescens FW300-N2E2', '=', 2.62),
  ('[Cl-].[Cs+] [Cesium chloride]', 'Pseudomonas fluorescens FW300-N2E2', '=', 5.91),
  ('[Na+].[Na+].[O]=[Mo](=[O])([O-])[O-] [Sodium molybdate]', 'Pseudomonas fluorescens FW300-N2E2', '=', 369),
  ('[Br-].[Na+] [sodium bromide]', 'Pseudomonas fluorescens FW300-N2E2', '=', 354),
  ('[Cl][Pt]([Cl])([Cl])[Cl] [platinum (IV) chloride]', 'Pseudomonas fluorescens FW300-N2E2', '=', 0.172),
  ('O.[Au+3].[Cl-].[Cl-].[Cl-] [gold (III) chloride hydrate]', 'Pseudomonas fluorescens FW300-N2E2', '<', 0.000244),
  ('O=C(O)CN(CC(=O)O)CC(=O)O', 'Pseudomonas fluorescens FW300-N2E2', '=', 54.7),
  ('[Na+].[O]=[V](=[O])[O-] [Sodium metavanadate]', 'Pseudomonas fluorescens FW300-N2E2', '=', 3.26),
  ('[I-].[Na+] [sodium iodide]', 'Pseudomonas fluorescens FW300-N2E2', '=', 330),
  ('O.O.O.O.O.O.O.O.O.O.O=S(=O)([O-])[O-].[Na+].[Na+] [Sodium sulfate]', 'Pseudomonas fluorescens FW300-N2E2', '=', 455);

----------
Test system: Pseudomonas fluorescens FW300-N2E2
Conditions: medium / electron acceptor: N2E2 LB/aerobic
measured parameter: IC50 growth inhibition (mM)

INSERT INTO assay_data (compound, measured_parameter, bound_sign, recorded_measurement) VALUES
  ('O.O=[Te](=O)([O-])[O-].[K+].[K+] [potassium tellurate hydrate]', 'IC50 growth inhibition', '>', 0.5),
  ('O=S([O-])[O-].[Na+].[Na+] [sodium sulfite]', 'IC50 growth inhibition', '=', 7.58),
  ('OCl [Sodium hypochlorite]', 'IC50 growth inhibition', '>', 5),
  ('O.O.O.O.O.O.O.O=[As]([O-])([O-])O.[Na+].[Na+] [Sodium arsenate dibasic heptahydrate]', 'IC50 growth inhibition', '<', 0.244),
  ('O.O.O.O.O.[Cd+2].[Cd+2].[Cl-].[Cl-].[Cl-].[Cl-] [Cadmium chloride hemipentahydrate]', 'IC50 growth inhibition', '=', 0.141),
  ('OP(O)(O)=S [Sodium thiophosphate tribasic hydrate]', 'IC50 growth inhibition', '>', 50),
  ('O=P[O-].[Na+] [Sodium hypophosphite monohydrate]', 'IC50 growth inhibition', '=', 354),
  ('O.O.O.O.O=S(=O)([O-])[O-].[Be+2] [beryllium sulfate tetrahydrate]', 'IC50 growth inhibition', '=', 1.61),
  ('O.O.O.O.O.O.[Al+3].[Cl-].[Cl-].[Cl-] [Aluminum chloride hydrate]', 'IC50 growth inhibition', '>', 5);

The reported measurements were obtained from the supplement of paper PMC6461962.
